# method_description: Highest frequency of acute liver toxicity observed during clinical trials, expressed as a percentage. [column '% AIGUE' in source]
# stated_conditions: human
measure_name: Hepatotoxicity (acute) (%)
A number alone suffices; assume %.

Example compounds with recorded Hepatotoxicity (acute):
compound: CCCC(C)(COC(N)=O)COC(=O)NC(C)C (stereo not given)
display_unit: %
recorded_number: 0
--
compound: O=C(O)Cc1nn(Cc2nc3cc(C(F)(F)F)ccc3s2)c(=O)c2ccccc12
display_unit: %
recorded_number: 0
--
compound: NC(=O)N1C(=O)/C(=C(\O)c2cccs2)c2cc(Cl)ccc21
display_unit: %
recorded_number: 0.8
--
compound: NCCCC(N)(C(=O)O)C(F)F (stereo not given)
display_unit: %
recorded_number: 0

Shift focus to the following entry.
Exercise: # Hepatotoxicity (acute) lookup, item `O=c1cc[nH]c(=S)[nH]1`
Key: 5.9

Origin of measurements: ChEMBL document CHEMBL3137667
